Test system: ACHN renal
assay.info: NCI-60 one-dose screen, 48 h (100 = growth as untreated, 0 = no growth, -100 = all killed)
settings: 10 µM unless noted
Compounds without any hit were thinned out: in the full panel of roughly 83,000, 20% have a hit. The source made the active and inactive calls. Rule for the calls: active = growth percent below 10; inactive = the rest.
outcome.measure: growth

Completed entries (count: 2):
{"compound": "Nc1ccc(-c2nnc(SCc3ccc(O)c4ncccc34)n2-c2ccccc2)cc1", "experimental.target": "ACHN renal", "outcome.measure": "growth", "value.reported": "12.4% (inactive)"}
{"compound": "CCCCCCNC(=O)Oc1ccc(/C(=C(/C)c2ccc(Cl)cc2)c2ccc(OCCN3CCCC3)cc2)cc1", "experimental.target": "ACHN renal", "outcome.measure": "growth", "value.reported": "37.5% (inactive)"}

Okay, next one:
Data request, read-out growth, for "Cc1cc2nc(C(Cl)Cl)nc(-c3ccco3)n2n1" 22% (inactive)
